B1: TPR t1 (parent)
chain: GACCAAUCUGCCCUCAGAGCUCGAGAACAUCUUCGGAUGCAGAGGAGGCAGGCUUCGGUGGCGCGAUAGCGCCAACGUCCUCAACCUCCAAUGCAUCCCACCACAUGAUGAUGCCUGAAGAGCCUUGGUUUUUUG

- Variants of: B1
- Method: polymerase ribozyme fitness, log enrichment relative to wild type (log ratio); higher = more active; in vitro selection for triplet polymerase activity
Parameter class (string): assigned from measured polymerase ribozyme fitness (log ratio). Ranges: range 1 = under -3, range 2 = from -3 up to -2, range 3 = -2 and over

*Q* Bin? C76A A95U C115U
*A* range 1

*Q* Bin? C72G A95U
*A* range 3

Values were extracted from the RNAGym collection of RNA variant scans (doi:10.1073/pnas.2313332121).
